This collection of values is drawn from patent US20110064726A1.

biological target: T1, cynomolgus monkey IgE (cynomolgus monkey); assay: capture ELISA, antibody coated; Test 1, Cyno 7 serum
T1 construct: serum was used as the source of IgE; also called cynomolgus IgE; cyno IgE
quantity name: IgE concentration detected
Give the number first and the unit second.

Identify measured IgE concentration detected associated with recombinant 5.396.1 (antibody, human IgG2, kappa, V domains shown, human IgG2 kappa, expressed in 293 Freestyle cells; also called 5.396.1 (recombinant)) VH: QVQLQQWGAGLLKPSETLSLTCAVYGGSFSGYYWSWIRQPPGKGLEWIGEIHHSGSTNYNPSLKSRVTISVDTSKNQFSLKLSSVTAADTAVYYCARDNWNDSFYYYYGMDVWGQGTTVTVSS VL: DIQMTQSPSSLSASVGDRVTITCRASQGISNHLAWFQQKPGKAPKSLIYAASSLQSGVPSKFSGSGSGTDFTLTISSLQPEDFATYYCQQYNRHPFTFGPGTKVDIKR
0 ng/mL
